Entry source: the COVID Moonshot data (paper PMC11187573)

conditions: 20.0 µM
observable: relative solubility at 20 uM

1) C=CC(=O)N(c1ccc(C(C)(C)C)cc1)C(C(=O)NC(C)(C)C)c1cccnc1 (configuration not stated) = 0.96
2) C=CC(=O)N(c1ccc(C(C)(C)C)cc1)C(C(=O)Nc1ccc2c(c1)OCCO2)c1cccnc1 (configuration not stated) = 0.98
3) C#CCN1CCN(C(=O)C=C)CC1 = 1.01
4) NS(=O)(=O)c1ccc(N2CCC(CO)CC2)cc1 = 1
5) Cc1ncncc1NC(=O)Nc1ccccc1 = 0.99
6) NS(=O)(=O)c1ccc2c(c1)CN(CC1CCN(C(=O)CCl)CC1)CC2 = 1
7) O=C1Nc2c(Br)cccc2C1=O = 0.99
8) O=C(CCNC(=O)c1c[nH]c2ccccc12)Nc1ccc(-n2cnc3ccccc32)cc1 = 0.82
9) O=C(CCl)N1CCN(S(=O)(=O)c2ccsc2)CC1 = 1
10) O=C(Nc1cnccc1Cl)c1cc(Cl)ccc1O = 1
11) CCN1CCN(Cc2ccccc2CNC2=NC[C@@H](C3CCCC3)N2)CC1 (stereo in doubt) = 1
12) CC(=O)N1CCN(Cc2cccc(C#N)c2)CC1 = 1

====

biological target: SARS-CoV-2 Main Protease (SARS-CoV-2); conditions: 50.0 µM
observable: inhibition

1. CC(OCC1CCCCO1)C(=O)N(CCc1ccccc1)Cc1cccnc1 (stereo unspecified) = -20.6%
2. O=C(OCC(O)CO)c1ccccc1Nc1ccnc2cc(Cl)ccc12 (stereo unspecified) = -5.01%
3. CCOC(=O)Cc1csc(NC(=O)Nc2cn(CC(C)C)c(=O)c3ccccc23)n1 = 2.55%
4. Cc1cccc(CC2CCN(C(=O)CCl)CC2)c1 = 90.5%
5. O=C1CC(c2cccc(NC(=O)Cc3cncnc3)c2)CN1 (stereo unspecified) = 10.8%
6. C=CC(=O)N(c1ccc(C(C)(C)C)cc1)C(C(=O)Nc1ccccc1OC)c1cccnc1 (stereo unspecified) = 44.2%
7. C=CC(=O)N(c1ccc(C(C)(C)C)cc1)C(C(=O)NC(C)(C)C)c1cncc(OC)c1 (stereo unspecified) = -6.87%
8. N#Cc1ccc(S(=O)(=O)N2CCN(C(=O)c3cc(=O)[nH]c4cc(F)ccc34)CC2)cc1 = 39.9%
9. COc1ccc(C2CC(c3ccccc3)=NN2C(=O)CCl)cc1OC (stereo unspecified) = 99.6%
10. N#Cc1ccc(O)c(NC(=O)Cc2cccnc2)c1 = -8.48%
11. O=C(CCl)N1CCN(Cc2nc(-c3cccs3)no2)CC1 = 17%

====

Listing of entries alongside the reported inhibition.
target: SARS-CoV-2 Main Protease (SARS-CoV-2) (UniProt P0DTD1); conditions: 50.0 µM
observable: inhibition (%)

1) Cc1ccc(NC(=O)Cc2cc3cccnc3[nH]2)s1 = 8.28
2) CN(CCNC(=O)c1cc(=O)[nH]c2ccccc12)c1ccccc1 = 19.2
3) COc1ccc2c(c1)C(C(=O)Nc1cncnc1C)CCC2 (centres undefined) = -24.1
4) C=CC(=O)N(c1ccc(C2(C)CC2)cc1)C(C(=O)Nc1ccc(OC)cc1C)c1cccnc1 (centres undefined) = 6.08
5) O=S(=O)(Cc1ccc(F)cc1)Nc1cccnc1 = -13.8
6) O=C(Cc1c[nH]c2ncccc12)N(Cc1c(F)cccc1Cl)c1ccc2[nH]c(=O)[nH]c2c1 = -1.08
7) O=C(NCCNc1ccncc1)c1cccc(S(=O)(=O)Nc2ccccc2-c2ccccc2)c1 = -32.8
8) CS(=O)(=O)c1ccc(N2CCNCC2)cc1 = 5.05
9) O=C1C(=O)N(Cc2ccccc2)c2cc(Br)ccc21 = -0.164
10) CC(C)CCNC(=O)C(CC(C)C)NC(=O)C1OC1C(=O)O (centres undefined) = -2.95
11) COC(=O)C(c1ccccc1Cl)N1CCC2SC(=O)C=C2C1 (centres undefined) = -5.13
12) Cc1noc([C@@H](C)S(=O)(=O)Cc2cccc(C(F)(F)F)c2)n1 (stereo in doubt) = -6.94
13) O=C(NCCOc1ccccc1)c1cc(=O)[nH]c2ccccc12 = 54.6
14) C=CC(=O)N(c1ccc2ncsc2c1)C(C(=O)Nc1c(C)cccc1CC)c1cccnc1 (centres undefined) = 10.7
15) NS(=O)(=O)c1ccc2c(c1)C(=O)C(=O)N2 = -3.21
16) O=C1C(Nc2ncnc3[nH]cnc23)CCN1Cc1ccccc1 (centres undefined) = -5.36
17) N#Cc1cccc(CN2C(=O)C(=O)c3cccc(Br)c32)c1 = -2.38
18) CCCSCC(=O)C(C#N)C(=O)Nc1ccccc1F (centres undefined) = -9.47
19) NS(=O)(=O)c1ccc(N2CCC(N3CCCCCC3)CC2)cc1 = 0.117
20) COc1ccccc1OCC(C)NC(=O)c1cc(=O)[nH]c2cc(F)ccc12 (centres undefined) = 78.4
21) O=C(Cc1ccccc1)Nc1cccc(OC2CC(=O)N2)c1 (centres undefined) = -0.808
22) Cc1ccncc1NC(=O)Nc1cccc(Cl)c1 = 58.7
23) Cc1ccncc1NC(=O)Cc1cccc(F)c1 = 65.3
24) C=CC(=O)N(c1ccc(C(C)(C)C)cc1)C(C(=O)NC)c1cccnc1 (centres undefined) = 69.7

====

Recorded inhibition by entry
target: SARS-CoV-2 Main Protease (SARS-CoV-2) (UniProt P0DTD1); conditions: 50.0 µM
observable: inhibition

1) C=CC(=O)N(c1ccc(C(C)(C)C)cc1)C(C(=O)Nc1ccc2c(c1)OCO2)c1cccnc1 (stereo unspecified) = 60.4%
2) O=C(CCNC(=O)c1c[nH]c2ccccc12)Nc1ccc(-n2cnc3ccccc32)cc1 = 8.08%
3) Cc1ccccc1C(C(=O)NCC(O)Cn1ccnn1)c1ccccc1 (stereo unspecified) = 4.24%
4) CS(=O)(=O)NCCCN1CCCc2ccc(S(N)(=O)=O)cc21 = -23.8%
5) CCCN(CC1COc2ccccc2O1)C(=O)c1cc(=O)[nH]c2ccc(Cl)cc12 (stereo unspecified) = -15.6%
6) COC(=O)c1sc(NS(=O)(=O)c2ccc(CF)cc2)nc1C(C)(C)C = -7.77%
7) Cc1ccnc(NC(=O)Cc2ccc3ccccc3c2)c1 = 8.23%
8) Cc1cc(NC(=O)Cc2cncnc2)cc(OC2CC(=O)N2)c1 (stereo unspecified) = 72.7%
9) C=CC(=O)N(c1ccc(SC)cc1)C(C(=O)Nc1c(C)cccc1CC)c1cccnc1 (stereo unspecified) = 24.5%
10) Cc1nnc(NC(=O)Cc2cccc(Cl)c2F)s1 = -14.8%
11) Cc1noc(CC(NC(=O)C(C)Cn2ccnc2)c2ccccc2)n1 (stereo unspecified) = -2.38%

====

details: 100.0 µM
observable: relative solubility at 100 uM

1) O=C(Cn1c(=O)[nH]c2ccccc21)Nc1cccc(Cl)c1 = 0.64
2) O=C(c1cc(=O)[nH]c2ccc(F)cc12)N1CCN(S(=O)(=O)c2cccc(Cl)c2)CC1 = 0.87
3) COc1ccc(N2CCN(C(=O)c3cc(=O)[nH]c4ccccc34)CC2)cc1 = 1
4) O=C(c1ccccc1)N1CCN(C(=O)c2nn(-c3ccccc3C(F)(F)F)cc2O)CC1 = 0.95
5) C=CC(=O)N(c1ccc(C(C)(C)C)cc1)C(C(=O)NC(C)(C)C)c1cncc(Br)c1 (stereo not given) = 0.97
6) CCS(=O)(=O)N1CCC(C(=O)Nc2cc(Cl)ccc2O)CC1 = 1
7) COc1ccc(C2CC(c3cccs3)=NN2C(=O)CCl)cc1OC (stereo not given) = 0.83
8) CC(C)[C@@H](C#N)NS(=O)(=O)c1ccc(CF)cc1 (stereo in doubt) = 1
9) Cc1cnn(-c2ccncc2NC(=O)Cn2cc(C)c3ccccc32)c1 = 0.1
10) C[C@H]1CN(Cc2ccccc2)CC[C@@H]1NC(=O)C(=O)NCc1ccccc1CN1CCCC[C@@H]1C (stereo in doubt) = 0.99

====

target: SARS-CoV-2 Main Protease (SARS-CoV-2); settings: 20.0 µM
Parameter inhibition: see the listing below.
observable: inhibition (%)

1) COC(=O)c1c(NCCCc2ccccc2)c2cc(F)ccc2[nH]c1=O = 20.5
2) C=CC(=O)N(c1ccc(C(C)(C)C)cc1)C(C(=O)Nc1ccc(OC)cc1OC)c1cccnc1 (centres undefined) = 48.9
3) CCOC(=O)[C@@H](CCc1ccccc1)N[C@H](C)C(=O)Nc1cccc(CN2CCCC2)c1 (stereo in doubt) = -3.55
4) C=CC(=O)N(c1ccc(C(F)(F)F)cc1)C(C(=O)Nc1c(C)cccc1CC)c1cccnc1 (centres undefined) = 22.3
5) CC(C)n1c(NC(=O)C2CCOc3ccccc32)nc2ccccc21 (centres undefined) = 27.9
6) COC(=O)[C@H](CO)NC(=O)[C@H](Cc1ccccc1)NC(=O)OCc1ccccc1 (stereo in doubt) = 1.06
7) O=C(c1cc(=O)[nH]c2ccc(F)cc12)N1CCN(S(=O)(=O)c2ccccc2Cl)CC1 = 19.5
8) COc1ccccc1OCCNC(=O)c1cc(=O)[nH]c2cccc(C)c12 = 91.8
9) Cc1cc(C)c(C#N)c(Sc2ncnc3c2nnn3Cc2ccccc2)n1 = 79
